Listing of entries alongside the reported inhibition at 50 µM.
# TESTED_SYSTEM: HSD10 (Homo sapiens, UniProt Q99714)
# Construct: endogenous in cells; host or cells: PC3 cells
# Sequence (Q99714 whole entry): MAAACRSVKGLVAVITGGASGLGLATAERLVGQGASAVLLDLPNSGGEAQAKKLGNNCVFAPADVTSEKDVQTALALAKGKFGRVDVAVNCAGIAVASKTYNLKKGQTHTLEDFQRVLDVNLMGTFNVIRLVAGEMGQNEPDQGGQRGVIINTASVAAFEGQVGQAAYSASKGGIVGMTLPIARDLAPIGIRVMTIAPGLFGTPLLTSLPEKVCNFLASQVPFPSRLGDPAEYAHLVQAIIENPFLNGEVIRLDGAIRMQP
# METHOD: HSD10 Enzyme Inhibition Assay
# Assay type: biochemical
# CONDITION_CONTEXT: 50 μM drug; read-out: Reductive Activity Drug Inhibition
The reply should be a number in %, with the unit left off.

Recorded results for 4 compounds are shown here.
In [3]: df
Out[3]:
                                   compound    measured_property  value_reported
0          CN(C)CCCN1c2ccccc2Sc2ccc(Cl)cc21  inhibition at 50 µM              18
1  CN(C)CCOC(c1ccccc1)c1ccccc1 [Diphenhydramine]  inhibition at 50 µM               6
2  Cc1nc2n(c(=O)c1CCN1CCC(c3noc4cc(F)ccc34)CC1)CCCC2  inhibition at 50 µM              63
3         CN(C)CCCN1c2ccccc2CCc2ccc(Cl)cc21  inhibition at 50 µM              15

The reported inhibition at 50 µM of the compound `CN1CCN(C2=Nc3cc(Cl)ccc3Nc3ccccc32)CC1` was 15
